ASSAY_DETAILS: Rat pharmacokinetics: IV infusion 1 mg/kg, then PO 5 mg/kg; blood and urine by LC-MS/MS
Type: in vivo, Male Wistar Han rats
TEST_PARAMETERS: oral bioavailability, ratio of dose-normalised AUC PO (5 mg/kg) and IV infusion (1 mg/kg)

{"COMPOUND_STRUCTURE": "Cc1cc(-c2cc(F)c(C(F)(F)F)c(F)c2)ccc1[C@@H](O)[C@H]1O[C@H](CO)[C@@H](O)[C@H](O)[C@@H]1O", "% F": "“++” (10 <= x <= 30%)"}
{"COMPOUND_STRUCTURE": "Cc1cc(-c2cc(Cl)cc(Cl)c2)ccc1[C@@H](O)[C@H]1O[C@H](CO)[C@@H](O)[C@H](O)[C@@H]1O", "% F": "“++” (10 <= x <= 30%)"}

###

SYSTEM_UNDER_TEST: FimH (Escherichia coli, UniProt Q1R2J4);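 further: concentration in nM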
Construct: endogenous in cells; host or cells: E. coli UTI89 whole bacteria, agglutinating guinea pig red blood cells
Type: cell-based
TEST_PARAMETERS: concentration reducing bacterial agglutination of guinea pig red blood cells by greater than 90%; UTI89 bacteria

{"COMPOUND": "Cc1cc(-c2cc(F)c(C(C)O)c(F)c2)ccc1[C@@H](O)[C@H]1O[C@H](CO)[C@@H](O)[C@H](O)[C@@H]1O (single isomer, unassigned) [Example 107]", "HAI titer EC > 90": "“++++” (<50 “++++”)"}
{"COMPOUND": "COc1cc(F)cc(-c2ccc([C@@H](O)[C@H]3O[C@H](CO)[C@@H](O)[C@H](O)[C@@H]3O)c(C(F)(F)F)c2)c1 [Example 58]", "HAI titer EC > 90": "“++++” (<50 “++++”)"}
{"COMPOUND": "Cc1cc(-c2cc(F)cc(C(F)(F)F)c2)ccc1[C@@H](O)[C@H]1O[C@H](CO)[C@@H](O)[C@H](O)[C@@H]1O [Example 6]", "HAI titer EC > 90": "“++++” (<50 “++++”)"}

###

SYSTEM_UNDER_TEST: FimH (Escherichia coli, UniProt Q1R2J4);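 further: concentration in nM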
Construct: endogenous in cells; host or cells: E. coli UTI89 whole bacteria, agglutinating guinea pig red blood cells
Type: cell-based
TEST_PARAMETERS: concentration reducing bacterial agglutination of guinea pig red blood cells by greater than 90%; UTI89 bacteria
REPORTED_METRIC: HAI titer EC > 90

{"COMPOUND": "OC[C@H]1O[C@H]([C@H](O)c2ccc(-c3cc(F)c(F)c(F)c3)cc2C(F)(F)F)[C@@H](O)[C@@H](O)[C@@H]1O [Example 97]", "SYSTEM_UNDER_TEST": "FimH (Escherichia coli, UniProt Q1R2J4)", "OBSERVED_VALUE": "“++++” (<50 “++++”)"}
{"COMPOUND": "Cc1cc(-c2cc(F)c(OC(F)F)c(F)c2)ccc1[C@@H](O)[C@H]1O[C@H](CO)[C@@H](O)[C@H](O)[C@@H]1O [Example 96]", "SYSTEM_UNDER_TEST": "FimH (Escherichia coli, UniProt Q1R2J4)", "OBSERVED_VALUE": "“++++” (<50 “++++”)"}
{"COMPOUND": "COc1c(F)cc(-c2ccc([C@@H](O)[C@H]3O[C@H](CO)[C@@H](O)[C@H](O)[C@@H]3O)c(C)c2)cc1F [Example 35]", "SYSTEM_UNDER_TEST": "FimH (Escherichia coli, UniProt Q1R2J4)", "OBSERVED_VALUE": "“++++” (<50 “++++”)"}
{"COMPOUND": "Cc1cc(-c2ccc([C@@H](O)[C@H]3O[C@H](CO)[C@@H](O)[C@H](O)[C@@H]3O)c(C)c2)cc(C(C)(C)C)c1 [Example 14]", "SYSTEM_UNDER_TEST": "FimH (Escherichia coli, UniProt Q1R2J4)", "OBSERVED_VALUE": "“+++” (50-200 “+++”)"}
{"COMPOUND": "C#Cc1c(F)cc(-c2ccc([C@@H](O)[C@H]3O[C@H](CO)[C@@H](O)[C@H](O)[C@@H]3O)c(C)c2)cc1F [Example 103]", "SYSTEM_UNDER_TEST": "FimH (Escherichia coli, UniProt Q1R2J4)", "OBSERVED_VALUE": "“++++” (<50 “++++”)"}
{"COMPOUND": "Cc1cc(-c2cc(F)cc(F)c2)cc(F)c1[C@@H](O)[C@H]1O[C@H](CO)[C@@H](O)[C@H](O)[C@@H]1O [Example 37]", "SYSTEM_UNDER_TEST": "FimH (Escherichia coli, UniProt Q1R2J4)", "OBSERVED_VALUE": "“++++” (<50 “++++”)"}
{"COMPOUND": "Cc1cc(-c2cc(F)ccc2F)ccc1[C@@H](O)[C@H]1O[C@H](CO)[C@@H](O)[C@H](O)[C@@H]1O [Example 17]", "SYSTEM_UNDER_TEST": "FimH (Escherichia coli, UniProt Q1R2J4)", "OBSERVED_VALUE": "“+++” (50-200 “+++”)"}
{"COMPOUND": "Cc1cc(-c2cc(Cl)c(Cl)cc2O)ccc1[C@@H](O)[C@H]1O[C@H](CO)[C@@H](O)[C@H](O)[C@@H]1O [Example 19]", "SYSTEM_UNDER_TEST": "FimH (Escherichia coli, UniProt Q1R2J4)", "OBSERVED_VALUE": "“++++” (<50 “++++”)"}
{"COMPOUND": "Cc1cc(-c2cc(C(F)F)cc(C(F)F)c2)ccc1[C@@H](O)[C@H]1O[C@H](CO)[C@@H](O)[C@H](O)[C@@H]1O [Example 86]", "SYSTEM_UNDER_TEST": "FimH (Escherichia coli, UniProt Q1R2J4)", "OBSERVED_VALUE": "“++++” (<50 “++++”)"}
{"COMPOUND": "Cc1cc(-c2ccc(F)c(C(F)(F)F)c2)ccc1[C@@H](O)[C@H]1O[C@H](CO)[C@@H](O)[C@H](O)[C@@H]1O [Example 25]", "SYSTEM_UNDER_TEST": "FimH (Escherichia coli, UniProt Q1R2J4)", "OBSERVED_VALUE": "“++++” (<50 “++++”)"}
{"COMPOUND": "Cc1cc(-c2cc(F)cc(F)c2)ccc1[C@@H](O)[C@H]1O[C@H](CO)[C@@H](O)[C@H](O)[C@@H]1O [Example 9]", "SYSTEM_UNDER_TEST": "FimH (Escherichia coli, UniProt Q1R2J4)", "OBSERVED_VALUE": "“++++” (<50 “++++”)"}
{"COMPOUND": "Cc1cc(-c2cc(F)c(F)c(Cl)c2)ccc1[C@@H](O)[C@H]1O[C@H](CO)[C@@H](O)[C@H](O)[C@@H]1O [Example 73]", "SYSTEM_UNDER_TEST": "FimH (Escherichia coli, UniProt Q1R2J4)", "OBSERVED_VALUE": "“++++” (<50 “++++”)"}
{"COMPOUND": "Cc1cc(-c2ccc(F)cc2)ccc1[C@@H](O)[C@H]1O[C@H](CO)[C@@H](O)[C@H](O)[C@@H]1O [Example 98]", "SYSTEM_UNDER_TEST": "FimH (Escherichia coli, UniProt Q1R2J4)", "OBSERVED_VALUE": "“+++” (50-200 “+++”)"}
{"COMPOUND": "Cc1cc(-c2cc(Cl)c(C3CC3)cc2F)ccc1[C@@H](O)[C@H]1O[C@H](CO)[C@@H](O)[C@H](O)[C@@H]1O [Example 56]", "SYSTEM_UNDER_TEST": "FimH (Escherichia coli, UniProt Q1R2J4)", "OBSERVED_VALUE": "“+++” (50-200 “+++”)"}
{"COMPOUND": "Cc1cc(-c2cc(F)cc(C(F)F)c2)ccc1[C@@H](O)[C@H]1O[C@H](CO)[C@@H](O)[C@H](O)[C@@H]1O [Example 85]", "SYSTEM_UNDER_TEST": "FimH (Escherichia coli, UniProt Q1R2J4)", "OBSERVED_VALUE": "“++++” (<50 “++++”)"}
{"COMPOUND": "Cc1cc(-c2cc(C(F)(F)F)ccc2F)ccc1[C@@H](O)[C@H]1O[C@H](CO)[C@@H](O)[C@H](O)[C@@H]1O [Example 46]", "SYSTEM_UNDER_TEST": "FimH (Escherichia coli, UniProt Q1R2J4)", "OBSERVED_VALUE": "“+++” (50-200 “+++”)"}
{"COMPOUND": "Cc1cc(-c2cc(Cl)ccc2OC(F)(F)F)ccc1[C@@H](O)[C@H]1O[C@H](CO)[C@@H](O)[C@H](O)[C@@H]1O [Example 55]", "SYSTEM_UNDER_TEST": "FimH (Escherichia coli, UniProt Q1R2J4)", "OBSERVED_VALUE": "“+++” (50-200 “+++”)"}
{"COMPOUND": "Cc1cc(F)c(-c2ccc([C@@H](O)[C@H]3O[C@H](CO)[C@@H](O)[C@H](O)[C@@H]3O)c(C)c2)cc1Cl [Example 11]", "SYSTEM_UNDER_TEST": "FimH (Escherichia coli, UniProt Q1R2J4)", "OBSERVED_VALUE": "“+++” (50-200 “+++”)"}
{"COMPOUND": "Cc1cc(-c2cc(Cl)ccc2OC(C)C)ccc1[C@@H](O)[C@H]1O[C@H](CO)[C@@H](O)[C@H](O)[C@@H]1O [Example 10]", "SYSTEM_UNDER_TEST": "FimH (Escherichia coli, UniProt Q1R2J4)", "OBSERVED_VALUE": "“++++” (<50 “++++”)"}
{"COMPOUND": "Cc1cc(-c2cc(C(F)(F)F)cc(C(F)(F)F)c2)ccc1[C@@H](O)[C@H]1O[C@H](CO)[C@@H](O)[C@H](O)[C@@H]1O [Example 74]", "SYSTEM_UNDER_TEST": "FimH (Escherichia coli, UniProt Q1R2J4)", "OBSERVED_VALUE": "“++++” (<50 “++++”)"}
{"COMPOUND": "Cc1cc(-c2ccc(C3CC3)cc2)ccc1[C@@H](O)[C@H]1O[C@H](CO)[C@@H](O)[C@H](O)[C@@H]1O [Example 100]", "SYSTEM_UNDER_TEST": "FimH (Escherichia coli, UniProt Q1R2J4)", "OBSERVED_VALUE": "“+++” (50-200 “+++”)"}
{"COMPOUND": "Cc1cc(-c2cc(F)c(C(C)C)c(F)c2)ccc1[C@@H](O)[C@H]1O[C@H](CO)[C@@H](O)[C@H](O)[C@@H]1O [Example 89]", "SYSTEM_UNDER_TEST": "FimH (Escherichia coli, UniProt Q1R2J4)", "OBSERVED_VALUE": "“++++” (<50 “++++”)"}
{"COMPOUND": "COc1c(F)cc(-c2ccc([C@@H](O)[C@H]3O[C@H](CO)[C@@H](O)[C@H](O)[C@@H]3O)c(C)c2)cc1Cl [Example 71]", "SYSTEM_UNDER_TEST": "FimH (Escherichia coli, UniProt Q1R2J4)", "OBSERVED_VALUE": "“++++” (<50 “++++”)"}
{"COMPOUND": "COc1cc(C)cc(-c2ccc([C@@H](O)[C@H]3O[C@H](CO)[C@@H](O)[C@H](O)[C@@H]3O)c(C)c2)c1 [Example 65]", "SYSTEM_UNDER_TEST": "FimH (Escherichia coli, UniProt Q1R2J4)", "OBSERVED_VALUE": "“+++” (50-200 “+++”)"}
{"COMPOUND": "Cc1cc(-c2cc(F)c(F)c(C(F)(F)F)c2)ccc1[C@@H](O)[C@H]1O[C@H](CO)[C@@H](O)[C@H](O)[C@@H]1O [Example 110]", "SYSTEM_UNDER_TEST": "FimH (Escherichia coli, UniProt Q1R2J4)", "OBSERVED_VALUE": "“++++” (<50 “++++”)"}
{"COMPOUND": "Cc1cc(-c2cc(Cl)cc(C(F)(F)F)c2)ccc1[C@@H](O)[C@H]1O[C@H](CO)[C@@H](O)[C@H](O)[C@@H]1O [Example 26]", "SYSTEM_UNDER_TEST": "FimH (Escherichia coli, UniProt Q1R2J4)", "OBSERVED_VALUE": "“++++” (<50 “++++”)"}
